Tested on: Plasmodium berghei
Assay: Screen against P. berghei liver stage (PbLuc), transformed with Luciferase, at 10uM
Assay type: functional, HepG2
Details: tested at 10 uM
In all, about 69,000 compounds went through this assay and about 8,600 (12%) showed an effect of 50% or more. This excerpt belongs to a sample that is enriched for strong results.
reported_property: INHIBITION (%)
A number alone suffices; assume %.

Consider the following illustrative entries.
compound="CC(C)n1cnc2c1C(C(=O)N(C)C)N(Cc1ccccc1)CC2 (configuration not stated)" obs_value=4.61
compound="CCN(CC1CCOC1)C(=O)c1cc(Cl)c2c(c1)OCO2 (configuration not stated)" obs_value=56.6
compound="CN(CCCC1CCCO1)S(=O)(=O)NCc1ccccc1 (configuration not stated)" obs_value=16.1
compound="Cc1nc(C2CCCN2C(=O)COCc2ccccc2)no1 (configuration not stated)" obs_value=7.27
compound="CCCNC(c1ccc(F)cc1)c1cccnc1 (configuration not stated)" obs_value=42.1
compound=COCCN1CCn2c(nc3cc(C(=O)NC(C)C)ccc32)C1 obs_value=19.3
compound="CN(C)CC(=O)N1CCOCC(Cc2ccccn2)C1 (configuration not stated)" obs_value=-20.6
compound="Cc1ccc(C(C(=O)NCc2n[nH]c(N)n2)N(C)C)cc1 (configuration not stated)" obs_value=19.5
compound=Cc1csc(CNC(=O)CCCc2cccs2)n1 obs_value=3.48
compound=CCOc1cccc(NC(=O)c2cnc(C)cn2)n1 obs_value=-24.5

State INHIBITION on Plasmodium berghei. Entry: `Cc1cc(CN2CCC(C(=O)O)(n3ccc(-c4ccco4)n3)CC2)on1`
1.48

Report value only: INHIBITION, Plasmodium berghei, `CS(=O)(=O)N1CC[C@H]2OCC[C@@]2(C(=O)NCC2CC2)C1`
42.1

Please indicate recorded INHIBITION of CCN1CC(C(=O)NCCc2csc(-c3ccncc3)n2)CCC1=O (configuration not stated) measured with Plasmodium berghei.
1.86

Please respond with reported INHIBITION (system Plasmodium berghei) for `Cc1noc(CN(C)c2ccccc2)n1` .
29.8

State the measured INHIBITION (Plasmodium berghei) of `COCCNC(=O)c1ccc2c(=O)n3c(nc2c1)CCCCCC3`
55.4

Fill: INHIBITION (Plasmodium berghei) for this compound Cc1cnn(CC2CCCN2C(=O)CCc2ccco2)c1 (configuration not stated)
45.9

###

System: Plasmodium berghei
Experiment: Screen against P. berghei liver stage (PbLuc), transformed with Luciferase, at 10uM
Assay type: functional, HepG2
Details: tested at 10 uM
The campaign covered roughly 69,000 compounds. About 8,600 (12%) showed an effect of 50% or more. Many of the other results were omitted from the sample, so strong results are more common in it than they were.
reported_property: INHIBITION (%)
Answer with a number only, understood to be in %.

Some solved cases for reference:
compound=Cc1cc(N2CCC(NC(=O)CCc3ccco3)CC2)nc(C)n1 target_or_system="Plasmodium berghei" obs_value=38.7
compound="CN1CCCCC1C(=O)N1CCN(c2ccccc2C#N)CC1 (stereo not given)" target_or_system="Plasmodium berghei" obs_value=39.6

Give reported INHIBITION value for `Cc1cc2nc(SCC(=O)N3CCCC3)n(-c3ccccc3)c(=O)c2[nH]1`
16.6

Return INHIBITION for the following compound: `CN1CCCN(C(=O)c2cnsn2)c2cc(F)ccc21`
7.77

Supply recorded INHIBITION for `COCc1nn(CC2CC2)c2c1CN(Cc1ccco1)CC2` here.
26

Read off the recorded INHIBITION for `CN(C)C(=O)Cc1ccc(NC(=O)NC2CCCC2)cc1`
-36.6

Provide INHIBITION value for the following compound: `CN(C)C(C)(C)CNCc1c[nH]nc1-c1cc2ccccc2o1`
36.9

Specify INHIBITION for CC(C)=CCCC1(C)CCC(=O)N(CCc2csc(N)n2)C1 (stereo not given) and stop.
39.3

Query INHIBITION for Cn1ncc2c(=O)[nH]c(CN3CCCC3c3ccccc3Cl)nc21 (stereo not given)
-19.6

Return value of INHIBITION for input CN1CC(C(=O)NCCc2ccc(Br)cc2F)CC1=O (stereo not given) , no commentary.
-57

Look up and state reported INHIBITION for Cc1noc2nc(C3CCCN(Cc4ccncc4)C3)cc(C(F)F)c12 (stereo not given)
34

Output INHIBITION of CC(c1nccs1)n1cc(-c2cc(CN3CCCCC3)cs2)nn1 (stereo not given)
21.5

Input CCc1cc(N2CCC(NC(=O)CCC3CCCO3)CC2)ncn1 (stereo not given) , output reported INHIBITION.
37.6

Let me know recorded INHIBITION for CC(c1nncn1C)n1cc(-c2cc(CN3CCCC3)cs2)nn1 (stereo not given) , thanks.
57.2

Assign INHIBITION to the following record: `Cc1noc(CNc2ccc(CC(=O)N3CCSCC3)cc2)n1`
32.5
